# Test system: HCV replicon in Huh7 cells
# TEST SUMMARY: microbe, parasite or virus in culture
# Type: cell-based, strain 1b
# PROTOCOL CONDITIONS: Hepatitis C virus, Huh-7, 96 h; Huh7 cells expressing HCV replicon, 4 days; activity range class
Entries and their measured EC50 follow.

Field: example entries. Status: answers known.
compound=C=C[C@@H]1C[C@]1(NC(=O)[C@@H]1C[C@@H](Oc2nccc3c(OC)c(Cl)ccc23)CN1C(=O)[C@@H](NC(=O)OC(C)(C)C)C(C)(C)C)C(=O)NS(=O)(=O)C1(CC)CC1 quantity=EC50 recorded_value="< 100 nM"
compound=C=C[C@@H]1C[C@]1(NC(=O)[C@@H]1C[C@@H](Oc2nccc3cc(OC)ccc23)CN1C(=O)[C@@H](NC(=O)OC(C)(C)C)C(C)(C)C)C(=O)NS(=O)(=O)C1(CC)CC1 quantity=EC50 recorded_value="< 100 nM"

Consider the additional molecule presented here.
Per the record, C=C[C@@H]1C[C@]1(NC(=O)[C@@H]1C[C@@H](Oc2nc(Cl)cc3c(OC)cccc23)CN1C(=O)[C@@H](NC(=O)OC(C)(C)C)C(C)(C)C)C(=O)NS(=O)(=O)C1(CC)CC1 has EC50 of 100 to 1000 nM

This collection of values is drawn from patent US7135462B2.
